- Test system: CD2F1 mice, L1210 leukemia ip, survival T/C
- MEASUREMENT PROTOCOL: NCI In Vivo Anticancer Drug Screen. Data for tumor model L1210 Leukemia (intraperitoneal) in CD2F1 (CDF1) mice
- TEST CONDITIONS: endpoint: mean survival time; dose: 400.0 mg/kg/injection; schedule: Q01DX001 (ip); vehicle: Klucel (hydroxypropylcellulose) (HPC)
Inconclusive results and toxic doses are left out. The calls were made as follows: active = survival T/C of 150% or more; inactive = T/C below 125% in these data.
Could you please pick one outcome from this set? YES for active, NO for inactive

These recorded examples may help you get a feel for the data.
| MOLECULE | CLASS LABEL |
| --- | --- |
| N=Cc1ccccc1 | NO |
| O=S(=O)(c1ccc(Cl)cc1)c1ccc(Cl)cc1 | NO |

Consider the additional molecule presented here.
Check the results log: what was the call for O=P1(N(CCCl)CCCl)NCCCO1 (stereo not drawn) ? YES

* * *

Give T/C for every item shown.
- System: CD2F1 mice, L1210 leukemia ip, survival T/C
- MEASUREMENT PROTOCOL: NCI In Vivo Anticancer Drug Screen. Data for tumor model L1210 Leukemia (intraperitoneal) in CD2F1 (CDF1) mice
- TEST CONDITIONS: endpoint: mean survival time; dose: 400.0 mg/kg/injection; schedule: Q04DX003 (ip); vehicle: saline with Tween-80; higher = longer survival
Inconclusive results and toxic doses are left out.

Please supply T/C for each of the following items, keeping them in order.
1. COc1ccc(N=c2ssc(SC)c2-c2ccccc2)cc1
2. Cc1c(NC(=O)Nc2cc([N+](=O)[O-])ccc2Cl)c(=O)n(-c2ccccc2)n1C
3. Cc1ccc([Si](OO[Si](c2ccccc2)(c2ccccc2)c2ccc(C)cc2)(c2ccccc2)c2ccccc2)cc1
4. Nc1nc(Cl)cc(-c2ccccc2)n1
5. c1ccc(CCCCc2ccc3ccccc3n2)cc1

1. 98 % of control
2. 95 % of control
3. 98 % of control
4. 90 % of control
5. 100 % of control

* * *

Give T/C for every item shown.
- Tested on: CD2F1 mice, L1210 leukemia ip, survival T/C
- MEASUREMENT PROTOCOL: NCI In Vivo Anticancer Drug Screen. Data for tumor model L1210 Leukemia (intraperitoneal) in CD2F1 (CDF1) mice
- TEST CONDITIONS: endpoint: mean survival time; dose: 25.0 mg/kg/injection; schedule: Q01DX009 (ip); vehicle: saline with Tween-80; higher = longer survival
Toxic doses and inconclusive results are not listed.

Example results:
| COMPOUND | T/C |
| --- | --- |
| CN(C)N=Nc1ccc(NC(N)=O)cc1 | 118 % of control |
| N#CC(C#N)=C(C#N)c1ccccc1 | 98 % of control |
| ClC1CCC[N-]C1.ClC1CCC[N-]C1.O=C(O)CC(=O)O.[Pt+2] (centres undefined) | 100 % of control |
| O=C(N/N=C/c1ccc2c(c1)OCO2)c1cccc(C(F)(F)F)c1 | 91 % of control |
| Cc1c2ccccc2c(C)c2c1ccc1ccccc12 | 106 % of control |

Please supply T/C for each of the following items, keeping them in order.
1. O/N=C/c1ccccc1
2. O=C=Nc1ccc(N=Nc2ccccc2)cc1
3. c1cc2c3c(c1)nc(CCCc1nc4cccc5c4n1CCC5)n3CCC2
4. CCOc1ccc(Nc2nc(C(Cl)(Cl)Cl)cc(C(Cl)(Cl)Cl)n2)cc1CN(CC)CC

["97 % of control", "89 % of control", "103 % of control", "102 % of control"]

Please supply T/C for each of the following items, keeping them in order.
1. NC(CS(=O)c1ccc(Cl)cc1)C(=O)O (centres undefined)
2. Cc1[nH]c(=O)[nH]c(=O)c1NC(=O)c1ccccc1[N+](=O)[O-]
3. [Cl][Pt+2]([Cl])([Cl])[Cl].[NH-]C1CCCCC1.[NH-]C1CCCCC1
4. NC(=S)c1ccc(OCCCc2ccccc2)cc1

1. 96 % of control
2. 104 % of control
3. 91 % of control
4. 95 % of control

Please supply T/C for each of the following items, keeping them in order.
1. CCN(CC)CCN1Cc2ccccc2C1
2. O=C(NCCCl)Nc1cc(Cl)cc(Cl)c1
3. Nc1nc(N)c(-c2ccc(Cl)c(Cl)c2)c(CBr)n1
4. CC#CC(=O)SCCNC(=O)CCNC(=O)CC(C)(C)C

["102 % of control", "97 % of control", "105 % of control", "95 % of control"]

* * *

- Tested on: CD2F1 mice, L1210 leukemia ip, survival T/C
- MEASUREMENT PROTOCOL: NCI In Vivo Anticancer Drug Screen. Data for tumor model L1210 Leukemia (intraperitoneal) in CD2F1 (CDF1) mice
- TEST CONDITIONS: endpoint: mean survival time; dose: 50.0 mg/kg/injection; schedule: Q01DX009 (ip); vehicle: saline; higher = longer survival
Toxic doses and inconclusive results are not listed.
Give T/C for every item shown.

| MOLECULE | T/C |
| --- | --- |
| NCc1cccc(-c2nc3ncnc(N)c3[nH]2)c1 | 101 % of control |

Please supply T/C for each of the following items, keeping them in order.
1. CC(C)(O)C(Cl)(Cl)Cl
2. N/C(=N\Cl)C(Cl)(Cl)Cl
3. Oc1ccc(Cl)cc1Cn1ccnc1
4. CCCN(CCC)CC(C)O (stereo not given)
5. Nc1nc([Se]Cc2ccc([N+](=O)[O-])cc2)c2ncn(C3OC(CO)C(O)C3O)c2n1 (stereo not given)
6. Cc1ccc(S(=O)(=O)OCC2OC(n3cnc4c(NC=O)ncnc43)C(OC=O)C2OC=O)cc1 (stereo not given)
7. CC(=O)Oc1c(C)[nH]ccc1=O
8. N#CC[CH2][Sn]([Br])([Br])[CH2]CC#N

1: 97 % of control; 2: 109 % of control; 3: 104 % of control; 4: 95 % of control; 5: 119 % of control; 6: 102 % of control; 7: 100 % of control; 8: 89 % of control

Any idea what T/C was measured for `CCN(CC)CCNC(=O)C(O)(c1ccccc1)c1ccccc1` ? 98 % of control

* * *

- Test system: CD2F1 mice, L1210 leukemia ip, survival T/C
- MEASUREMENT PROTOCOL: NCI In Vivo Anticancer Drug Screen. Data for tumor model L1210 Leukemia (intraperitoneal) in CD2F1 (CDF1) mice
- TEST CONDITIONS: endpoint: mean survival time; dose: 100.0 mg/kg/injection; schedule: Q01DX001 (ip); vehicle: saline with Tween-80; higher = longer survival
Inconclusive results and toxic doses are left out.
EXPERIMENTAL ENDPOINT: T/C

Example results:
| COMPOUND | T/C |
| --- | --- |
| CCCCCCC(=O)/C=C\C(C)=C\c1ccccc1 | 94 % of control |
| CCCCOC(=O)c1ccc(OC(=O)Nc2ccc(C)cc2[N+](=O)[O-])cc1 | 113 % of control |
| COc1ccccc1N=Nc1c(O)n(-c2ccccc2OC)c(=S)n(-c2ccccc2OC)c1=O | 93 % of control |
| NC(CCc1ccc2c(c1)OCO2)C(=O)O (centres undefined) | 97 % of control |
| Cc1ccc(S(=O)(=O)N(C)c2ccc(C(=O)O)c(Cl)c2Cl)cc1 | 96 % of control |
| CCOc1ccc(-n2c(=O)c(N=Nc3ccccc3OC)c(O)n(-c3ccc(C)cc3)c2=S)cc1 | 98 % of control |
| CC1(C)CC(=O)N(Cc2ccccc2)N1C(=O)c1ccccc1 | 113 % of control |
| CC(=O)O/N=C(\C(c1ccccc1)c1ccccc1)C1c2ccccc2-c2ccccc21 | 87 % of control |
| c1ccc(C2Cc3ccccc3C2=NC2CCCCC2)cc1 (centres undefined) | 97 % of control |
| O/N=C/c1ccccc1 | 97 % of control |

Please supply T/C for each of the following items, keeping them in order.
1. Nc1ccc(C(=O)O)cc1
2. ICC(CI)(CI)CI
3. S=C(Cc1ccccc1)N1CCOCC1
4. O=C1C=C(c2ccccc2)OC(=O)C1C(=O)c1ccccc1 (centres undefined)
5. O=C(O)c1cc(-c2ccccc2)nc2ccccc12
6. C=C(Br)CNC(=O)NCC(=C)Br
7. CCCCCCCCCCCCCCCCOc1ccc(C(=O)CC(=O)OC)cc1

1. 95 % of control
2. 100 % of control
3. 98 % of control
4. 98 % of control
5. 103 % of control
6. 91 % of control
7. 86 % of control

Please supply T/C for each of the following items, keeping them in order.
1. Cc1nc(N)[nH]c(=O)c1CCCNCc1ccncc1
2. Cc1ccc(Cl)cc1NC(=S)NC(=O)COc1ccccc1

1. 87 % of control
2. 89 % of control

* * *

- Tested on: CD2F1 mice, L1210 leukemia ip, survival T/C
- MEASUREMENT PROTOCOL: NCI In Vivo Anticancer Drug Screen. Data for tumor model L1210 Leukemia (intraperitoneal) in CD2F1 (CDF1) mice
- TEST CONDITIONS: endpoint: mean survival time; dose: 100.0 mg/kg/injection; schedule: Q01DX009 (ip); vehicle: saline
Toxic doses and inconclusive results are not listed. The calls were made as follows: active = survival T/C of 150% or more; inactive = T/C below 125% in these data.
Could you please pick one outcome from this set? 1 (yes) (active), 0 (no) (inactive)

| MOLECULE | CLASS LABEL |
| --- | --- |
| NC(N)=NNC(=O)C(=O)O | 0 (no) |
| CC1COC(=O)O1 (stereo not given) | 0 (no) |

Check the results log: what was the call for Nc1nc(F)nc2c1ncn2C1OC(COC=O)C(OC=O)C1O (stereo not given) (tested in a mixture with another compound) ? 1 (yes)

Next up: `CCOC(=O)CCN(CC)CC` 0 (no)

Next up: `NCc1cccc(-c2nc3ncnc(N)c3[nH]2)c1` 0 (no)

Next up: `CCCCCOC(=O)CCCc1ccc(N(CCCl)CCCl)cc1` 0 (no)

Next up: `C=C1C(=O)O[C@@H]2C[C@@]3(C)CCC[C@H](C)C3=C[C@H]12` 0 (no)

Next up: `CC(C)(O)C(Cl)(Cl)Cl` 0 (no)

Next up: COC(=O)C(CC(C)C)NC(=O)C(CSC(c1ccccc1)(c1ccccc1)c1ccccc1)NC(c1ccccc1)(c1ccccc1)c1ccccc1 (stereo not given) 0 (no)

All values here come from PubChem BioAssay AID256.
